Assay: Stability in CD-1 mouse plasma assessed as half life
Format: ADME, cell-free
assay.readout: half-life (h)
Write the value in h as a bare number.

1) Cc1nc(Nc2ncc(C(=O)Nc3c(C)cccc3Cl)s2)cc(N2CCC(CN3CCN(c4ccc(C5CCC(=O)NC5=O)cc4)CC3)CC2)n1 (stereo unspecified); 45.2

Form: compound = Cc1nc(Nc2ncc(C(=O)Nc3c(C)cccc3Cl)s2)cc(N2CCC(N(C)C3CCN(c4ccc(C5CCC(=O)NC5=O)cc4)CC3)CC2)n1 (stereo unspecified) ; half-life = 3.84

half-life recorded for this compound, Cc1nc(Nc2ncc(C(=O)Nc3c(C)cccc3Cl)s2)cc(N2CCN(C(=O)CCCN3CC4CC3CN4c3ccc(C4CCC(=O)NC4=O)cc3)CC2)n1 (stereo unspecified) , is 4.25

Entry Cc1nc(Nc2ncc(C(=O)Nc3c(C)cccc3Cl)s2)cc(N2CCN(CCCN3CCN(Cc4ccc(C5CCC(=O)NC5=O)cc4)CC3)CC2)n1 (stereo unspecified) ; half-life = 30.1

For Cc1nc(Nc2ncc(C(=O)Nc3c(C)cccc3Cl)s2)cc(N2CCN(CCCN3CCC4(CC3)CCN(c3ccc(C5CCC(=O)NC5=O)cc3)CC4)CC2)n1 (stereo unspecified) the compound record lists half-life as 47.4

Reported half-life of Cc1nc(Nc2ncc(C(=O)Nc3c(C)cccc3Cl)s2)cc(N2CCN(CCCN3CCC(c4ccc(C5CCC(=O)NC5=O)cc4)CC3)CC2)n1 (stereo unspecified) : 4.98

----------
Test: AUClast in CD-1 mouse at 30 mg/kg, po measured up to 24 hrs
Format: ADME, organism-based
Conditions: in vivo
assay.readout: AUC(0-t) at 24 h (ng·h/mL)
Number only, in ng·h/mL; omit the unit.

The compound Cc1nc(Nc2ncc(C(=O)Nc3c(C)cccc3Cl)s2)cc(N2CCC(CN3CCN(c4ccc(C5CCC(=O)NC5=O)cc4)CC3)CC2)n1 (stereo unspecified) showed AUC(0-t) at 24 h equal to 20700

----------
Assay: Clearance in CD-1 mouse at 3 mg/kg, iv measured up to 24 hrs by LC-MS/MS analysis
Format: ADME, organism-based
Conditions: in vivo
assay.readout: clearance (mL/min/kg)
Entry rule: numbers only, all in mL/min/kg.

Just so you know, measured clearance for Cc1nc(Nc2ncc(C(=O)Nc3c(C)cccc3Cl)s2)cc(N2CCN(CCCN3CCN(Cc4ccc(C5CCC(=O)NC5=O)cc4)CC3)CC2)n1 (stereo unspecified) came out at 169

----------
Assay: Tmax in CD-1 mouse at 30 mg/kg, po measured up to 24 hrs
Format: ADME, organism-based
Details: in vivo
assay.readout: Tmax (h)
Give the value in h but do not write h after it.

Lab note: measured Tmax of Cc1nc(Nc2ncc(C(=O)Nc3c(C)cccc3Cl)s2)cc(N2CCC(CN3CCN(c4ccc(C5CCC(=O)NC5=O)cc4)CC3)CC2)n1 (stereo unspecified) was 1

----------
Assay: Cmax in CD-1 mouse at 30 mg/kg, po measured up to 24 hrs
Type: ADME, organism-based
Details: in vivo
assay.readout: Cmax (ng/mL)
A number alone suffices; assume ng/mL.

Cmax reading for Cc1nc(Nc2ncc(C(=O)Nc3c(C)cccc3Cl)s2)cc(N2CCC(CN3CCN(c4ccc(C5CCC(=O)NC5=O)cc4)CC3)CC2)n1 (stereo unspecified) : 2240

----------
Assay: Metabolic stability in mouse liver microsomes assessed as half life in presence of NADPH by UPLC-MS/MS analysis
Type: ADME, Microsome
assay.readout: half-life (min)
Give the value in min but do not write min after it.

1) Cc1nc(Nc2ncc(C(=O)Nc3c(C)cccc3Cl)s2)cc(N2CCN(CCCC(=O)N3CC4CC3CN4c3ccc(C4CCC(=O)NC4=O)cc3)CC2)n1 (stereo not drawn); 19.2
2) Cc1nc(Nc2ncc(C(=O)Nc3c(C)cccc3Cl)s2)cc(N2CCC(N(C)C3CCN(c4ccc(C5CCC(=O)NC5=O)cc4)CC3)CC2)n1 (stereo not drawn); 126

Continue with the compound presented below.
Recorded half-life (compound Cc1nc(Nc2ncc(C(=O)Nc3c(C)cccc3Cl)s2)cc(N2CCN(C(=O)CCCN3CC4CC3CN4c3ccc(C4CCC(=O)NC4=O)cc3)CC2)n1 (stereo not drawn) ): 32.4

----------
# Lookup of reported Emax keyed by entry
Target: Protein cereblon/Tyrosine-protein kinase Lck (Homo sapiens, UniProt P06239+Q96SW2)
Sequence (P06239 2-509 limits assumed): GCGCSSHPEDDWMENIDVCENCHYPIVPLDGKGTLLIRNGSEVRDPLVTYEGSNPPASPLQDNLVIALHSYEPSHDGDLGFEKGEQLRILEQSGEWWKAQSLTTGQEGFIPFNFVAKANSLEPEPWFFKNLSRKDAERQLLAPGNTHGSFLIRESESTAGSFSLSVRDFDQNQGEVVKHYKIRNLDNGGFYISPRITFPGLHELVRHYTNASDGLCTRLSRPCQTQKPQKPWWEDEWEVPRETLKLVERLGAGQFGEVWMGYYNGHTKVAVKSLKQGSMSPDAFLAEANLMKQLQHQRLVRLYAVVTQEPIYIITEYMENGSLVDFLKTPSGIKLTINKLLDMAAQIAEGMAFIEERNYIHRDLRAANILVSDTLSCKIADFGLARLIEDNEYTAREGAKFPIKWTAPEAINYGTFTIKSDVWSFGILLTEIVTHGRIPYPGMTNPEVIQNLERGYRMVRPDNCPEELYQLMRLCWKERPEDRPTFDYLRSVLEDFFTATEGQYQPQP
Sequence (Q96SW2 whole entry partner): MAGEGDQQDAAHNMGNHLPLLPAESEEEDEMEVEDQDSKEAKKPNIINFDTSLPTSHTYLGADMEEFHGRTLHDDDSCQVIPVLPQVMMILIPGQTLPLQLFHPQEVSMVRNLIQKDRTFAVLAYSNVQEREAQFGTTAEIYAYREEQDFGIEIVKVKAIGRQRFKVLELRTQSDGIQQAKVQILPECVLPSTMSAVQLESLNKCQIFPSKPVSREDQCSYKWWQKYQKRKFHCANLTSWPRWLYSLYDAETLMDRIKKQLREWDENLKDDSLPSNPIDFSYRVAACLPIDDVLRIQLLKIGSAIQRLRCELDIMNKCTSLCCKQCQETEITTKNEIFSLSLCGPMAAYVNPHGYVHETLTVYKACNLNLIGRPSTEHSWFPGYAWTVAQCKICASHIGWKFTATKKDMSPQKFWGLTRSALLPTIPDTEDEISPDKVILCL
Test: PROTAC activity at HiBit-tagged LCK/CRBN in human KOPT-K1 cells assessed as induction of LCK degradation incubated for 6 hrs by Nano-Glo HiBiT assay relative to control
Type: cell-based

1. Cc1nc(Nc2ncc(C(=O)Nc3c(C)cccc3Cl)s2)cc(N2CCC3(CCN(c4ccc(C5CCC(=O)NC5=O)cc4)CC3)CC2)n1 (stereo not drawn); < 60%
2. Cc1nc(Nc2ncc(C(=O)Nc3c(C)cccc3Cl)s2)cc(N2CCN(Cc3ccc(C4CCC(=O)NC4=O)cc3)CC2)n1 (stereo not drawn); < 60%

Reported Emax (Protein cereblon/Tyrosine-protein kinase Lck (Homo sapiens, UniProt P06239+Q96SW2)) for entry Cc1nc(Nc2ncc(C(=O)Nc3c(C)cccc3Cl)s2)cc(N2CCN(CCCN3CCC(c4ccc(C5CCC(=O)NC5=O)cc4)CC3)CC2)n1 (stereo not drawn) is 87%

----------
Test: Metabolic stability in mouse liver microsomes assessed as half life in presence of NADPH by UPLC-MS/MS analysis
Assay type: ADME, Microsome
# log10 half-life per entry
A value of 2 here means half-life of 100 in min, since values are log10.

Some solved cases for reference:
1) Cc1nc(Nc2ncc(C(=O)Nc3c(C)cccc3Cl)s2)cc(N2CCN(CCCC(=O)N3CCC4(CC3)CCN(c3ccc(C5CCC(=O)NC5=O)cc3)CC4)CC2)n1 (stereo not drawn); 1.86
2) Cc1nc(Nc2ncc(C(=O)Nc3c(C)cccc3Cl)s2)cc(N2CCN(CCN3CCN(c4ccc(C5CCC(=O)NC5=O)cc4)CC3)CC2)n1 (stereo not drawn); 2.38
3) Cc1nc(Nc2ncc(C(=O)Nc3c(C)cccc3Cl)s2)cc(N2CCN(CCCN3CCN(Cc4ccc(C5CCC(=O)NC5=O)cc4)CC3)CC2)n1 (stereo not drawn); 2.78
4) Cc1nc(Nc2ncc(C(=O)Nc3c(C)cccc3Cl)s2)cc(N2CCC(CN3CCN(c4ccc(C5CCC(=O)NC5=O)cc4)CC3)CC2)n1 (stereo not drawn); 2.08

Moving on to another compound below.
Looking up Cc1nc(Nc2ncc(C(=O)Nc3c(C)cccc3Cl)s2)cc(N2CCC3(CCN(c4ccc(C5CCC(=O)NC5=O)cc4)CC3)CC2)n1 (stereo not drawn) , I see its log10 half-life listed as 2.12

----------
Experiment: Oral bioavailability in CD-1 mouse at 10 mg/kg measured up to 24 hrs by LC-MS/MS analysis
Format: ADME, organism-based
Details: in vivo
assay.readout: bioavailability (%)
The reply should contain only the number, in %.

Form field bioavailability, entry Cc1nc(Nc2ncc(C(=O)Nc3c(C)cccc3Cl)s2)cc(N2CCN(CCCN3CCN(Cc4ccc(C5CCC(=O)NC5=O)cc4)CC3)CC2)n1 (stereo unspecified) : 3.1

----------
Experiment: Apparent permeability of compound across basolateral to apical side in human Caco-2 cells
Assay type: ADME, cell-based
assay.readout: Papp B→A (×10⁻⁶ cm/s)
Give just the numeric value; ×10⁻⁶ cm/s need not be written.

Before answering, review these 4 worked examples.
1) Cc1nc(Nc2ncc(C(=O)Nc3c(C)cccc3Cl)s2)cc(N2CCN(CCCN3CCC4(CC3)CCN(c3ccc(C5CCC(=O)NC5=O)cc3)CC4)CC2)n1 (stereo unspecified); 5.3
2) Cc1nc(Nc2ncc(C(=O)Nc3c(C)cccc3Cl)s2)cc(N2CCC(CN3CCN(c4ccc(C5CCC(=O)NC5=O)cc4)CC3)CC2)n1 (stereo unspecified); 1.13
3) Cc1nc(Nc2ncc(C(=O)Nc3c(C)cccc3Cl)s2)cc(N2CCC(N(C)C3CCN(c4ccc(C5CCC(=O)NC5=O)cc4)CC3)CC2)n1 (stereo unspecified); 12.7
4) Cc1nc(Nc2ncc(C(=O)Nc3c(C)cccc3Cl)s2)cc(N2CCN(CCCN3CCN(Cc4ccc(C5CCC(=O)NC5=O)cc4)CC3)CC2)n1 (stereo unspecified); 13.3

The recorded Papp B→A for Cc1nc(Nc2ncc(C(=O)Nc3c(C)cccc3Cl)s2)cc(N2CCN(CCCN3CCC(c4ccc(C5CCC(=O)NC5=O)cc4)CC3)CC2)n1 (stereo unspecified) is 9.82

Kindly note the recorded Papp B→A for Cc1nc(Nc2ncc(C(=O)Nc3c(C)cccc3Cl)s2)cc(N2CCN(C(=O)CCCN3CC4CC3CN4c3ccc(C4CCC(=O)NC4=O)cc3)CC2)n1 (stereo unspecified) , which is 1.55

----------
Assay: Aqueous solubility of the compound incubated for 18 hrs by UPLC-SQDMS
Assay type: physicochemical
Details: buffer
# thresholds on solubility at 18 h define classes: A = under 1 µM, B = from 1 µM up to 3 µM, C = 3 µM and over

Problem: Band of Cc1nc(Nc2ncc(C(=O)Nc3c(C)cccc3Cl)s2)cc(N2CCN(CCCN3CC4CC3CN4c3ccc(C4CCC(=O)NC4=O)cc3)CC2)n1 (configuration not stated) ?
Result: C

Data credit: ChEMBL document CHEMBL5523741
